# Test system: Streptococcus pneumoniae
# run-description: Minimum inhibitory concentration of the compound against 3 […] Streptococcus pneumoniae OC4051 with an erm(B)-ribosomal methylase-mediated resistance was determined
# Type: functional
# MIC per entry

| entry-smiles | result-unit | MIC |
| --- | --- | --- |
| CC[C@H]1OC(=O)[C@@](C)(F)C(=O)[C@H](C)[C@@H](O[C@@H]2O[C@H](C)C[C@H](N(C)C)[C@H]2O)[C@](C)(OC(=O)NC/C=C/c2ccc3ncccc3c2)C[C@@H](C)/C(=N\O)[C@H](C)[C@H]2NC(=O)O[C@@]21C | µg/mL | 0.03 |
| CC[C@H]1OC(=O)[C@@](C)(F)C(=O)[C@H](C)[C@@H](O[C@@H]2O[C@H](C)C[C@H](N(C)C)[C@H]2O)[C@](C)(OC(=O)NC/C=C/c2ccccc2)C[C@@H](C)/C(=N\O)[C@H](C)[C@H]2NC(=O)O[C@@]21C | µg/mL | 0.12 |
| CC[C@H]1OC(=O)[C@@](C)(F)C(=O)[C@H](C)[C@@H](O[C@@H]2O[C@H](C)C[C@H](N(C)C)[C@H]2O)[C@](C)(OC(=O)NCc2cn(-c3ncccn3)cn2)C[C@@H](C)C(=O)[C@H](C)[C@H]2NC(=O)O[C@@]21C | µg/mL | 0.12 |
| CC[C@H]1OC(=O)[C@@](C)(F)C(=O)[C@H](C)[C@@H](O[C@@H]2O[C@H](C)C[C@H](N(C)C)[C@H]2O)[C@](C)(OC(=O)NC/C=C/c2cccnc2)C[C@@H](C)/C(=N\O)[C@H](C)[C@H]2NC(=O)O[C@@]21C | µg/mL | 0.12 |
| CC[C@H]1OC(=O)[C@@](C)(F)C(=O)[C@H](C)[C@@H](O[C@@H]2O[C@H](C)C[C@H](N(C)C)[C@H]2O)[C@](C)(OC(=O)NC/C=C/c2ccc(-c3ccccn3)cc2)C[C@@H](C)C(=O)[C@H](C)[C@H]2NC(=O)O[C@@]21C | µg/mL | 0.06 |
| CC[C@H]1OC(=O)[C@@](C)(F)C(=O)[C@H](C)[C@@H](O[C@@H]2O[C@H](C)C[C@H](N(C)C)[C@H]2O)[C@](C)(OC(=O)NC/C=C/c2ccc(-c3ncccn3)cc2)C[C@@H](C)C(=O)[C@H](C)[C@H]2NC(=O)O[C@@]21C | µg/mL | 0.12 |

====

Listed below: MIC values for each entry.
# System: Streptococcus pneumoniae
# run-description: Minimum inhibitory concentration of the compound against 3 […] Streptococcus pneumoniae OC4421 with an mef(A) efflux-mediated resistance was determined
# Type: functional
observable: MIC (µg/mL)

| entry-smiles | measured |
| --- | --- |
| CC[C@H]1OC(=O)[C@@](C)(F)C(=O)[C@H](C)[C@@H](O[C@@H]2O[C@H](C)C[C@H](N(C)C)[C@H]2O)[C@](C)(OC(=O)NC/C=C/c2ccc(-c3ncccn3)cc2)C[C@@H](C)C(=O)[C@H](C)[C@H]2NC(=O)O[C@@]21C | 0.12 |
| CC[C@H]1OC(=O)[C@@](C)(F)C(=O)[C@H](C)[C@@H](O[C@@H]2O[C@H](C)C[C@H](N(C)C)[C@H]2O)[C@](C)(OC(=O)NCCOCc2ccc(-c3ncccn3)cc2)C[C@@H](C)C(=O)[C@H](C)[C@H]2NC(=O)O[C@@]21C | 0.12 |
| CC[C@H]1OC(=O)[C@@](C)(F)C(=O)[C@H](C)[C@@H](O[C@@H]2O[C@H](C)C[C@H](N(C)C)[C@H]2O)[C@](C)(OC(=O)NC/C=C/c2cncc(-c3ccccn3)c2)C[C@@H](C)C(=O)[C@H](C)[C@H]2NC(=O)O[C@@]21C | 0.12 |
| CC[C@H]1OC(=O)[C@@](C)(F)C(=O)[C@H](C)[C@@H](O[C@@H]2O[C@H](C)C[C@H](N(C)C)[C@H]2O)[C@](C)(OC(=O)NC/C=C/c2ccc(-c3cnccn3)cc2)C[C@@H](C)C(=O)[C@H](C)[C@H]2NC(=O)O[C@@]21C | 0.06 |

Sourced from ChEMBL document CHEMBL1141900
